systemTested: α1β3(M286W+F221W) GABAA receptor (Homo sapiens, UniProt P14867+P28472, F246W/M311W)
Sequence (P28472 26-473 F246W/M311W): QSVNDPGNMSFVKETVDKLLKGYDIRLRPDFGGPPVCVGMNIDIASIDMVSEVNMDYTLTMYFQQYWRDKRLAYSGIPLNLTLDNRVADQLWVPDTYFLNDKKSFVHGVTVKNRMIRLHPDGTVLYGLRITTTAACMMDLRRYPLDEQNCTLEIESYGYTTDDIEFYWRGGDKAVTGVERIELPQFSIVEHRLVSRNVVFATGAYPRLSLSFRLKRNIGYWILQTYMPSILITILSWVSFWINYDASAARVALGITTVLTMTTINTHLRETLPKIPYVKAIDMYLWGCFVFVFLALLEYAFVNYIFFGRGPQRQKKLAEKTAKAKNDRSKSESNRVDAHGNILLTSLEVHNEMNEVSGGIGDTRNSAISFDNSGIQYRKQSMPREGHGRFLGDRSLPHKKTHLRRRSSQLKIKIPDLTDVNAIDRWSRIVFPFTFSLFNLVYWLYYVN
Sequence (P14867 28-456): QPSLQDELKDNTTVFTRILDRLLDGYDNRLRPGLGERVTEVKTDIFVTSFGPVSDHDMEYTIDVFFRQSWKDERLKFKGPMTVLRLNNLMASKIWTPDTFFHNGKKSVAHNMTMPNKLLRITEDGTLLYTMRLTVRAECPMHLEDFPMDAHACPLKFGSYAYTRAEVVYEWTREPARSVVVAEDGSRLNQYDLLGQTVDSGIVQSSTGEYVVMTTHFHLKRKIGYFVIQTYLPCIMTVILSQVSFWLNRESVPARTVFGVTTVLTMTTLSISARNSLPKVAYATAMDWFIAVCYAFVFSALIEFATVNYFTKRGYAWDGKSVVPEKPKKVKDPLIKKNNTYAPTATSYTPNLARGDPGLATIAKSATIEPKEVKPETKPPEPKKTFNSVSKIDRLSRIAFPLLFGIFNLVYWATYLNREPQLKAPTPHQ
assayInfo: Two-electrode voltage clamp activation of α1β3
reportedEndpoint: EC50 (µM)
The answer is to be given in µM; state only the numeric part.

Give its EC50 value. Item: CC(C)c1cccc(C(C)C)c1O [Propofol, 2,6-diisopropylphenol]
6.6

====

systemTested: α1β3(M286W+F221W) GABAA receptor (Homo sapiens, UniProt P14867+P28472, F246W/M311W)
assayInfo: Two-electrode voltage clamp activation of α1β3
reportedEndpoint: Kd (µM)
Return type: number; implicit unit µM.

// Kd lookup, key: CC(C)c1cccc(C(C)C)c1O
5.7

====

systemTested: α1β3(M286W+Y143W) GABAA receptor (Homo sapiens, UniProt P14867+P28472, M311W/Y168W)
Sequence (P28472 26-473 Y168W/M311W, one chain of several): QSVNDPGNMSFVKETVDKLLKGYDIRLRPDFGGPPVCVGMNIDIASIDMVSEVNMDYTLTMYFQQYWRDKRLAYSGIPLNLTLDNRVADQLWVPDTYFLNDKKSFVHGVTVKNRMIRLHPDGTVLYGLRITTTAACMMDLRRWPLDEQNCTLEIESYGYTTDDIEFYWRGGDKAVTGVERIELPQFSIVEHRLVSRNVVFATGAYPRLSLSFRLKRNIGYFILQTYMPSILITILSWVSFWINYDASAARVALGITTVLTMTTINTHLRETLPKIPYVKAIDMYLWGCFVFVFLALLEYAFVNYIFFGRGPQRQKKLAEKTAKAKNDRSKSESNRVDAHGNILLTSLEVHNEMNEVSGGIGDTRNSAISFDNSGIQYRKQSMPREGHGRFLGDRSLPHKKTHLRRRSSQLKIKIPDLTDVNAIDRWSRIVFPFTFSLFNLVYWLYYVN
assayInfo: Two-electrode voltage clamp activation of α1β3
reportedEndpoint: pKd
// field semantics: pKd = negative decimal log of concentration (mol/L)

Requested read-out: pKd. Entry: CC(C)c1cccc(C(C)C)c1O [Propofol, 2,6-diisopropylphenol]
5.85
